Structures can show the parent of a compound that is named as a salt.
readout: melting point

Before answering, review these 2 worked examples.
compound	melting point
Cc1ccc2c(c1O)CN(C)CC2c1ccccc1 (stereo not drawn)	260 to 261 °C
Cc1c(F)ccc2c1CN(C)CC2c1ccccc1 (stereo not drawn)	185 to 186 °C

Value of melting point reported for the compound CNCc1ccc2c(c1F)CN(C)CC2c1ccccc1 (stereo not drawn) (as salt: HCl) is 185 to 205 °C

* * *

Structures can show the parent of a compound that is named as a salt.
readout: melting point

compound	readout	value_reported
CN1Cc2cc(OCc3ccccc3)ccc2C(c2ccccc2)C1 (stereo not drawn)	melting point	155 to 156 °C
CN1Cc2cc(OC(F)(F)F)ccc2C(c2ccccc2)C1 (stereo not drawn)	melting point	150 to 151 °C (dec.)
Cc1cc(F)c2c(c1)C(C)N(C)C(F)C2c1ccccc1 (stereo not drawn) (as salt: HCl)	melting point	194 to 197 °C (dec.)
CN1Cc2cc(CO)ccc2C(c2ccccc2)C1 (stereo not drawn) (as salt: HCl)	melting point	237 to 240 °C (dec.)
Cc1ccc2c(c1F)CN(C)CC2c1ccccc1 (stereo not drawn) (as salt: hydrochloride)	melting point	215 to 216 °C
CN1Cc2cc(Oc3ccccc3)ccc2C(c2ccccc2)C1 (stereo not drawn)	melting point	175 to 176 °C (dec.)

The compound identified as CN1Cc2c(CO)cccc2C(c2ccccc2)C1 (stereo not drawn) registered its melting point at 144 to 146 °C

Briefly, melting point measured for Cc1ccc2c(c1)C(C)N(C)CC2c1ccccc1 (stereo not drawn) : 87 to 89 °C

Value of measured melting point for the entry CN1Cc2cc(C(F)(F)F)ccc2C(c2ccccc2)C1 (stereo not drawn) : 257 to 275 °C

* * *

readout: melting point

Solved entries (count: 2):
molecule	melting point
Cc1ccc2c(c1)CN(C)CC2c1ccc(F)c(C)c1 (stereo not drawn)	174 to 175 °C
COc1c(C)ccc2c1CN(C)CC2c1ccccc1 (stereo not drawn)	130 to 131 °C

Next molecule, please.
Just so you know, measured melting point for FCc1ccc2c(c1CF)CN(CF)CC2c1ccccc1 (stereo not drawn) came out at 108 to 113 °C
